molecular target: human V1a receptor (Homo sapiens (Human), UniProt P37288); assay: human V1a receptor binding studies (3H-Vasopressin, SPA beads); conditions: membranes of HEK293 cells transiently transfected with human V1a receptor, Ki by Cheng-Prussoff
Sequence (P37288 whole entry): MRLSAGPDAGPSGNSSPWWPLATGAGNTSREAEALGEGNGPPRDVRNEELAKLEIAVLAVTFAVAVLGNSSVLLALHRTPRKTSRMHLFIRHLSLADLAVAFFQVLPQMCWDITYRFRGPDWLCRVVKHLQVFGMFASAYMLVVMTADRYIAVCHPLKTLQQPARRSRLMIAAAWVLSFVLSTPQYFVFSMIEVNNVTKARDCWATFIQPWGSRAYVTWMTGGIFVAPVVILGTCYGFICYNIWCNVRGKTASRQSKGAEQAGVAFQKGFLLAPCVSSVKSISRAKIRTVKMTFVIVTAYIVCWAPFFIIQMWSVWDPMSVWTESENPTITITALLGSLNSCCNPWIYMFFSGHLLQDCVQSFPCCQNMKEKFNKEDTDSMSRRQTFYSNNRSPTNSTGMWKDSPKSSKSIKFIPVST
Short version: pKi hV1a at least 8 is 1 (yes), less is 0 (no).

Answered cases to consult:
INSERT INTO assay_data (smiles_structure, cat) VALUES
  ('O=C1N=C(N2CCC3(CC2)OCc2ccccc23)S/C1=C\c1ccncc1', '0 (no)'),
  ('C/C(=C1/SC(N2CCC3(CC2)OCc2ccccc23)=NC1=O)c1ccccc1Cl', '1 (yes)'),
  ('C/C(CO[Si](C)(C)C(C)(C)C)=C1\SC(N2CCC3(CC2)OCc2ccccc23)=NC1=O', '0 (no)');

# next molecule below
In: Is the recorded value of pKi hV1a equal to or greater than 8 for this molecule? `CC(C)CC(CC(C)C)=C1SC(N2CCC3(CC2)OCc2ccccc23)=NC1=O`
Out: 1 (yes)

* * *

target: human V1a receptor (Homo sapiens (Human)); experiment: human V1a receptor binding studies (3H-Vasopressin, SPA beads); conditions: membranes of HEK293 cells transiently transfected with human V1a receptor, Ki by Cheng-Prussoff
Result Type: pKi hV1a
Answer with a bare number; do not write a unit.

INSERT INTO results (molecule, experimental_system, result_type, value_reported) VALUES
  ('O=C1N=C(N2CCC3(CC2)OCc2ccccc23)SC1=C(CF)CF [Example 69]', 'human V1a receptor (Homo sapiens (Human))', 'pKi hV1a', 8.0),
  ('CC(C)(C)[Si](C)(C)OC/C(=C1/SC(N2CCC3(CC2)OC(=O)c2ccccc23)=NC1=O)c1ccc(Cl)nc1 [Example 144]', 'human V1a receptor (Homo sapiens (Human))', 'pKi hV1a', 8.0);

In: # get_value(readout= pKi hV1a, system= human V1a receptor (Homo sapiens (Human))) for CC(C)(C)[Si](C)(C)OC/C(=C1/SC(N2CCC3(CC2)OCc2ccccc23)=NC1=O)c1ccc(Cl)nc1 [Example 129]
Out: 8.2

In: GET /values?readout=pKi hV1a&system=human V1a receptor (Homo sapiens (Human))&item= CC(C)(C)/C(=C1/SC(N2CCC3(CC2)OCc2ccccc23)=NC1=O)c1ccc(Cl)cc1 [Example 21]
Out: 7.9

In: Value wanted: pKi hV1a (human V1a receptor (Homo sapiens (Human))) of entry O=C1N=C(N2CCC3(CC2)OCc2ncccc23)S/C1=C1/COCc2ccccc21 [Example 168]
Out: 8.2

In: Record CC/C(=C1\SC(N2CCC3(CC2)OCc2ccccc23)=NC1=O)c1ccc(Cl)nc1 [Example 134] : what is its pKi hV1a with human V1a receptor (Homo sapiens (Human))?
Out: 8.0

In: Form field: pKi hV1a recorded for O=C1N=C(N2CCC3(CC2)OCc2ccccc23)S/C1=C(/CO)c1ccc(Cl)nc1 [Example 130] with human V1a receptor (Homo sapiens (Human)) (enter value)
Out: 8.9

In: # returns recorded pKi hV1a (system: human V1a receptor (Homo sapiens (Human))) for O=C1N=C(N2CCC3(CC2)OCc2ccccc23)S/C1=C1/CCCc2ccc(Cl)cc21 [Example 20]
Out: 9.0

In: API: value(readout= pKi hV1a, system= human V1a receptor (Homo sapiens (Human)), query= C/C(=C1/SC(N2CCC3(CC2)OCc2ccccc23)=NC1=O)c1ccc(C)nc1 [Example 7] )
Out: 8.9

* * *

biological target: human V1a receptor (Homo sapiens (Human), UniProt P37288); test: human V1a receptor binding studies (3H-Vasopressin, SPA beads); conditions: membranes of HEK293 cells transiently transfected with human V1a receptor, Ki by Cheng-Prussoff
# pKi hV1a per record follows
Reply with just the number.

Study these solved cases before continuing.
INSERT INTO assay_data (compound, result_type, value_reported) VALUES
  ('C/C(CF)=C1/SC(N2CCC3(CC2)OCc2ccccc23)=NC1=O [Example 51]', 'pKi hV1a', 7.9),
  ('O=C1N=C(N2CCC3(CC2)OCc2ccccc23)SC1=C(c1ccc(F)cc1)c1ccc(F)cc1 [Example 101]', 'pKi hV1a', 8.0);

# evaluate next
In: GET /values?readout=pKi hV1a&item= C/C(=C1/SC(N2CCC3(CC2)OCc2ccccc23)=NC1=O)C1CCOCC1 [Example 78]
Out: 7.9
